- measurement-target: SFTSV Gn glycoprotein (G19-K452, C3 genotype) (SFTSV (severe fever with …))
- test: BLI
What pKd was measured for each of the following?
Numbers only, as −log10 of the molar value.

Record excerpt, results attached:
For this binder ( SD4-S monoclonal antibody (human IgG1) (antibody, V domains shown) VH: QVQLVESGGGVLQPGRSLRLSCAASGFTFSGYGMHWVRQAPGKGLEWVAVISYDGSEKNYGDSVKGRFTISRDNSKNTLYLQINSLRTEDRAVYYCAKDRDYFGSGFFDYWGQGTLVTVSS VL: DIQMTQSPSSLSASVGDRVTITCQASQDITKYLNWYQQKPGKAPKLLIFEASNLETGVPSRFSGSGSGTDFTFTISSLQPEDFATYYCQQYGDFPLTFGGGTKVEIK ), measured pKd is 9.71

For this binder ( SD4-X monoclonal antibody (human IgG1) (antibody, V domains shown) VH: QVQLVESGGGVVQPGRSLRLSCAASGFTFSSYGMHWVRQAPGKGLEWVAVISYDGSNKYYADSVKGRFTISRDNSKNTLYLQMNSLRAEDTAVYYCAKDRDYYGSGFFDYWGQGTLVTVSS VL: DIQMTQSPSSLSASVGDRVTITCQASQDISNHLNWYQEKPGKVPKLLIYEASNVETGVPSRFSGSGSGTDFTFTISSLQPEDIATYYCQQYDNLPYTFGQGTKLEIK ), measured pKd is 8.96

For this binder ( SD22 monoclonal antibody (human IgG1) (antibody, V domains shown) VH: QVQLVESGGGVVQPGRSLRLSCAASGFTFSGFGMHWVRQAPGKGLEWVALISYDGSDTYYSDSVKGRFTISRDNSKNTLYLQLKSLRPDDTAVYYCVGDRDYFGSGFFDHWGQGTLVTVSS VL: DIQMTQSPSSLSASIGDRVTITCRASRHITNHLNWYQHKPGRAPKLLIYEASNLQAGVPSRFSGSGSGTDFTFTISSLQPEDFATYYCQQYDNLPPAFGGGTKVDIK ), measured pKd is 9.69

Continuing:
For this binder ( SD12 monoclonal antibody (human IgG1) (antibody, V domains shown) VH: EVQLLESGGGLVQPGGSLRLSCAASGFIFSSYAMSWVRQAPGKGLEWVSAISGSGGSTYYADSVKGRFTISRDNSKNTLYLQMNSLRDEDTAVYYCAKDRSYVSSGFFDDWGQGTLVTVSS VL: DIQMTQSPSSLSASVGDRVTITCQASQDISNYLNWYQQRPGKAPKLLIFEASNLETGVPSRFSGSGSGTDFTFTISSLQPEDIATYYCQQYENLLYTFGQGTKLEIK ), measured pKd is 8.63
